test system: Staphylococcus aureus; experiment: Antibacterial activity against Staphylococcus aureus ATCC 29213 at 400 ug after 18 hr by disk diffusion method; type: functional; settings: ATCC 29213, 18 h, read-out: DIZ

[
  {
    "COMPOUND": "CC(C)NCC(O)COc1c(Br)c(Br)c(Br)c2c1OC(C)(C)C2 (centres undefined)",
    "zone of inhibition at 400 µg/disc / mm": 20
  },
  {
    "COMPOUND": "CC1(C)Cc2c(Br)c(Br)c(Br)c(O)c2O1",
    "zone of inhibition at 400 µg/disc / mm": 18
  },
  {
    "COMPOUND": "CN(C)CC(O)COc1c(Br)c(Br)c(Br)c2c1OC(C)(C)C2 (centres undefined)",
    "zone of inhibition at 400 µg/disc / mm": 19
  },
  {
    "COMPOUND": "CC1(C)Cc2c(Br)c(Br)c(Br)c(OCC(O)CN3CCCCC3)c2O1 (centres undefined)",
    "zone of inhibition at 400 µg/disc / mm": 16
  }
]

====

tested on: Human immunodeficiency virus 1; assay: Antiviral activity against Human immunodeficiency virus 1 infected human MT4 cells assessed as inhibition of virus-induced cytopathogenicity after 4 days by MTT assay; type: functional, organism-based; details: Human immunodeficiency virus 1, MT4, 96 h
Documented EC50 across a set of compounds
MEASURED METRIC: EC50

[
  {
    "COMPOUND": "CC1(C)Cc2c(Br)c(Br)c(Br)c(OCC(O)CN3CCN(c4ccccc4)CC3)c2O1 (stereo not drawn)",
    "ASSAY VALUE": "> 31 µM"
  },
  {
    "COMPOUND": "CC1(C)Cc2c(Br)c(Br)c(Br)c(O)c2O1",
    "ASSAY VALUE": "> 60 µM"
  },
  {
    "COMPOUND": "CC1(C)Cc2cccc(O)c2O1",
    "ASSAY VALUE": "> 100 µM"
  }
]

====

tested on: Pseudomonas aeruginosa; assay: Antibacterial activity against Pseudomonas aeruginosa ATCC 15442 after 18 hr; assay type: functional; settings: ATCC 15442, 18 h
MEASURED METRIC: MIC

[
  {
    "COMPOUND": "CC(C)NCC(O)COc1c(Br)c(Br)c(Br)c2c1OC(C)(C)C2 (centres undefined)",
    "ASSAY VALUE": "12.5 µg/mL"
  },
  {
    "COMPOUND": "CN(C)CC(O)COc1c(Br)c(Br)c(Br)c2c1OC(C)(C)C2 (centres undefined)",
    "ASSAY VALUE": "25 µg/mL"
  },
  {
    "COMPOUND": "CC1(C)Cc2c(Br)c(Br)c(Br)c(O)c2O1",
    "ASSAY VALUE": "12.5 µg/mL"
  },
  {
    "COMPOUND": "CC1(C)Cc2c(Br)c(Br)c(Br)c(OCC(O)CN3CCCCC3)c2O1 (centres undefined)",
    "ASSAY VALUE": "25 µg/mL"
  }
]

====

tested on: Candida albicans; assay: Antifungal activity against Candida albicans ATCC 90028 after 18 hr; type: functional; details: ATCC 90028, 18 h

[
  {
    "MOLECULE": "CC(C)NCC(O)COc1c(Br)c(Br)c(Br)c2c1OC(C)(C)C2 (centres undefined)",
    "MIC / µg/mL": 200
  },
  {
    "MOLECULE": "CC1(C)Cc2c(Br)c(Br)c(Br)c(OCC(O)CN3CCCCC3)c2O1 (centres undefined)",
    "MIC / µg/mL": 100
  },
  {
    "MOLECULE": "CC1(C)Cc2c(Br)c(Br)c(Br)c(O)c2O1",
    "MIC / µg/mL": 200
  },
  {
    "MOLECULE": "CN(C)CC(O)COc1c(Br)c(Br)c(Br)c2c1OC(C)(C)C2 (centres undefined)",
    "MIC / µg/mL": 200
  }
]

====

system: Staphylococcus aureus; test: Antibacterial activity against Staphylococcus aureus ATCC 25923 at 400 ug after 18 hr by disk diffusion method; format: functional; conditions: ATCC 25923, 18 h, read-out: DIZ

[
  {
    "COMPOUND": "CC(C)NCC(O)COc1c(Br)c(Br)c(Br)c2c1OC(C)(C)C2 (centres undefined)",
    "TARGET UNDER TEST": "Staphylococcus aureus",
    "zone of inhibition at 400 µg/disc, mm": 18
  },
  {
    "COMPOUND": "CC1(C)Cc2c(Br)c(Br)c(Br)c(OCC(O)CN3CCCCC3)c2O1 (centres undefined)",
    "TARGET UNDER TEST": "Staphylococcus aureus",
    "zone of inhibition at 400 µg/disc, mm": 16
  },
  {
    "COMPOUND": "CC1(C)Cc2c(Br)c(Br)c(Br)c(O)c2O1",
    "TARGET UNDER TEST": "Staphylococcus aureus",
    "zone of inhibition at 400 µg/disc, mm": 18
  },
  {
    "COMPOUND": "CN(C)CC(O)COc1c(Br)c(Br)c(Br)c2c1OC(C)(C)C2 (centres undefined)",
    "TARGET UNDER TEST": "Staphylococcus aureus",
    "zone of inhibition at 400 µg/disc, mm": 18
  }
]

====

Documented MIC across a set of compounds
tested on: Staphylococcus aureus; assay: Antibacterial activity against Staphylococcus aureus ATCC 29213 after 18 hr; assay type: functional; conditions: ATCC 29213, 18 h
MEASURED METRIC: MIC (µg/mL)

[
  {
    "COMPOUND": "CC1(C)Cc2c(Br)c(Br)c(Br)c(O)c2O1",
    "MEASURED METRIC": "MIC",
    "UNITS OF MEASURE": "µg/mL",
    "ASSAY VALUE": 25
  },
  {
    "COMPOUND": "CC(C)NCC(O)COc1c(Br)c(Br)c(Br)c2c1OC(C)(C)C2 (centres undefined)",
    "MEASURED METRIC": "MIC",
    "UNITS OF MEASURE": "µg/mL",
    "ASSAY VALUE": 25
  },
  {
    "COMPOUND": "CN(C)CC(O)COc1c(Br)c(Br)c(Br)c2c1OC(C)(C)C2 (centres undefined)",
    "MEASURED METRIC": "MIC",
    "UNITS OF MEASURE": "µg/mL",
    "ASSAY VALUE": 100
  },
  {
    "COMPOUND": "CC1(C)Cc2c(Br)c(Br)c(Br)c(OCC(O)CN3CCCCC3)c2O1 (centres undefined)",
    "MEASURED METRIC": "MIC",
    "UNITS OF MEASURE": "µg/mL",
    "ASSAY VALUE": 100
  }
]
